Quick reference: plate-normalized OD600 growth of the listed items.
- System: Escherichia coli BW25113
- assay: plate-normalized OD600 growth (mean of duplicates) (OD600 (normalized)); higher = more growth (less inhibition)
- experimentalParameters: temperature: 15°C; 48 h; 10 µM
Whole data set: some 1,600 compounds, median “plate-normalized OD600 growth (mean of duplicates)” near 0.31, cut for the lowest 2% near 0.23. Many of the other results were omitted from the sample, so the lowest values are more common in it than they were.
Give a plain numeric answer without units written out.

Take a look at these entries with their results.
{"compound": "Cc1ccc(NC(=O)c2c(O)c3ccccc3[nH]c2=O)c(C)c1", "plate-normalized OD600 growth": 0.27}
{"compound": "CN1CCC(NCc2ccccc2F)CC1", "plate-normalized OD600 growth": 0.212}
{"compound": "CCN1CCN(C/C=C/c2ccccc2)CC1", "plate-normalized OD600 growth": 0.28}
{"compound": "CCSc1sc(CC)cc1C(N)=O", "plate-normalized OD600 growth": 0.239}
{"compound": "COc1ccccc1NS(=O)(=O)c1ccc(Cl)cc1", "plate-normalized OD600 growth": 0.256}

Give the measured plate-normalized OD600 growth of `CCCN1CCC(NCCc2ccccc2OC)CC1` .
0.252

Would you mind doing `CC1(C)CC(=O)C=C(Nc2ccc(F)c(F)c2)C1` as well?
0.247

Would you mind doing `O=Cc1ccc(-c2ccc(Cl)c(C(=O)O)c2)o1` as well?
0.268

Would you mind doing `COc1cccc(NC(=O)c2cccc(I)c2)c1` as well?
0.244

Would you mind doing `COc1ccc(-c2c(C)[nH]n3c(=O)cc(-c4ccc([N+](=O)[O-])cc4)nc23)cc1` as well?
0.24

* * *

Quick reference: plate-normalized OD600 growth of the listed items.
- System: Escherichia coli BW25113
- assay: plate-normalized OD600 growth (mean of duplicates) (OD600 (normalized)); higher = more growth (less inhibition)
- experimentalParameters: temperature: 15°C; 48 h; 10 µM
The full ranking holds about 1,600 compounds; the median of “plate-normalized OD600 growth (mean of duplicates)” is about 0.31, and the lowest 2% start at about 0.23. This excerpt belongs to a sample that is enriched for the lowest values.
Give a plain numeric answer without units written out.

Take a look at these entries with their results.
{"compound": "CC(=O)Nc1ccc(-c2cc(-c3ccc(NC(C)=O)cc3)nc(-c3ccccc3)n2)cc1", "measurementTarget": "Escherichia coli BW25113", "plate-normalized OD600 growth": 0.246}
{"compound": "CC1CCCC(C)N1C(=O)c1ccc(Br)cc1 (configuration not stated)", "measurementTarget": "Escherichia coli BW25113", "plate-normalized OD600 growth": 0.25}
{"compound": "COc1ccc(CN2CCCN(C)CC2)c(OC)c1", "measurementTarget": "Escherichia coli BW25113", "plate-normalized OD600 growth": 0.25}
{"compound": "CN1CCCN(CC2CC3C=CC2C3)CC1 (configuration not stated)", "measurementTarget": "Escherichia coli BW25113", "plate-normalized OD600 growth": 0.225}
{"compound": "O=C(Nc1ccc(Cl)cc1)c1ccccc1Br", "measurementTarget": "Escherichia coli BW25113", "plate-normalized OD600 growth": 0.264}

Give the measured plate-normalized OD600 growth of Cc1[nH]nc2c1C(c1ccccc1I)C(C#N)=C(N)O2 (configuration not stated) .
0.233

Would you mind doing CC(=O)c1sc(N2N=C(c3ccccc3)CC2c2ccccc2)nc1C (configuration not stated) as well?
0.254

Would you mind doing `N#Cc1ccc(-c2cccs2)[nH]c1=O` as well?
0.236

Would you mind doing `COc1ccc(CN2CCCN(C)CC2)cc1Br` as well?
0.229

Would you mind doing `CC(=O)c1ccc(NS(=O)(=O)c2cc(S(=O)(=O)c3ccccc3)ccc2C)cc1` as well?
0.278

Would you mind doing CC1(C)CC(n2c(NN)nc3c(c2=O)C2(CCCCC2)Cc2ccccc2-3)CCO1 (configuration not stated) as well?
0.255

Would you mind doing `COc1ccc(Cl)cc1NC(=O)c1ccccc1Br` as well?
0.222

* * *

- Test system: Escherichia coli BW25113
- assay: plate-normalized OD600 growth (mean of duplicates) (OD600 (normalized)); higher = more growth (less inhibition)
- experimentalParameters: temperature: 37°C; 24 h; 10 µM
In all, about 1,600 compounds were measured (“plate-normalized OD600 growth (mean of duplicates)”: median about 0.31, lowest 2% from about 0.23 on). The sample holds the lowest values, similar compounds and a random draw of the others, so the mix is not that of the screen.
Quick reference: plate-normalized OD600 growth of the listed items.
Give a plain numeric answer without units written out.

{"compound": "O=C(Nc1ccc(Br)cc1)c1cccnc1", "plate-normalized OD600 growth": 0.633}

Give recorded plate-normalized OD600 growth with Escherichia coli BW25113 for the following compound: `c1cc2cn[nH]c2cc1NC1CCCCCC1`
0.604

Would you mind doing `NCC(=O)Nc1ccc(Br)cc1` as well?
0.606

Would you mind doing `O=C(O)c1ccc(S(=O)(=O)c2ccc(O)cc2)cc1` as well?
0.592

Would you mind doing `Fc1ccc(CN2CCN(c3ncccn3)CC2)cc1` as well?
0.629

Would you mind doing `COCc1cc(C)nc(NN)c1C#N` as well?
0.622

Would you mind doing `O=C(c1ccc(Br)o1)N1CCN(c2ccc([N+](=O)[O-])cc2)CC1` as well?
0.622

Would you mind doing `Cc1nn(-c2ccccc2)c(N2CCCCC2)c1C=O` as well?
0.62

Would you mind doing `CN1CCN(C(=O)CC(c2ccccc2)c2ccccc2)CC1` as well?
0.62

Would you mind doing `Cc1ccc(NCc2ccc([N+](=O)[O-])cc2)cc1C` as well?
0.605

Would you mind doing CC1CCCC(C)N1C(=O)Cc1ccccc1 (stereo unspecified) as well?
0.611

Would you mind doing CC1(C)CC(=O)C2=C(C1)Nc1ccccc1NC2c1ccccc1F (stereo unspecified) as well?
0.618

Would you mind doing O=C(c1sc2ccccc2c1Cl)N1CCN(CCN2C(=O)C3C4C=CC(C4)C3C2=O)CC1 (stereo unspecified) as well?
0.611

Would you mind doing `Cc1ccccc1C(=O)Nc1ccc(Br)cc1` as well?
0.631

Would you mind doing CC1(C)CC(=O)C2=C(C1)Nc1ccccc1NC2c1ccc([N+](=O)[O-])s1 (stereo unspecified) as well?
0.604

Would you mind doing `O=C(c1ccccc1[N+](=O)[O-])N1CCN(C(c2ccccc2)c2ccccc2)CC1` as well?
0.627

Would you mind doing `Cc1[nH]n(-c2ccccc2)c(=O)c1C=O` as well?
0.605

Would you mind doing `COc1cccc(NC(=O)c2cccc(I)c2)c1` as well?
0.596

Would you mind doing `CCOc1ccc(-c2ncnn2-c2ccc([N+](=O)[O-])cc2)cc1` as well?
0.625

Would you mind doing `CCN(C(=O)Cc1ccccc1)C1CCCCC1` as well?
0.606

Would you mind doing O=C1CC(N2CCOCC2)C(=O)N1c1ccc(I)cc1 (stereo unspecified) as well?
0.645

Would you mind doing `O=C(c1ccco1)N1CCN(c2ccc([N+](=O)[O-])cc2)CC1` as well?
0.617

Would you mind doing CC1(C)CC(=O)C2=C(C1)Nc1ccccc1NC2c1ccc(Br)cc1 (stereo unspecified) as well?
0.627

Would you mind doing COc1ccc(S(=O)(=O)N2CCCC(C)C2)cc1 (stereo unspecified) as well?
0.639

Would you mind doing `N#CSCCCCOc1ccccc1Cl` as well?
0.605

Would you mind doing N#CC1=C(N)Oc2cc(N)ccc2C1c1ccc(Br)s1 (stereo unspecified) as well?
0.636

* * *

- System: Escherichia coli BW25113
- assay: plate-normalized OD600 growth (mean of duplicates) (OD600 (normalized)); higher = more growth (less inhibition)
- experimentalParameters: temperature: 37°C; 24 h; 10 µM
In all, about 1,600 compounds were measured (“plate-normalized OD600 growth (mean of duplicates)”: median about 0.31, lowest 2% from about 0.23 on). For the sample, the lowest values were picked, then their nearest neighbours and some compounds at random.
endpoint: plate-normalized OD600 growth
Give a plain numeric answer without units written out.

Give the measured plate-normalized OD600 growth of `CCN(CC)C(=O)c1ccc([N+](=O)[O-])o1` .
0.627

Would you mind doing `O=C(O)c1ccc2c(c1)C(=O)N(c1c[nH]c(=O)[nH]c1=O)C2=O` as well?
0.592

* * *

- System: Escherichia coli BW25113
- assay: plate-normalized OD600 growth (mean of duplicates) (OD600 (normalized)); higher = more growth (less inhibition)
- experimentalParameters: temperature: 37°C; 24 h; 10 µM
The full ranking holds about 1,600 compounds; the median of “plate-normalized OD600 growth (mean of duplicates)” is about 0.31, and the lowest 2% start at about 0.23. This is one part of a sample in which the lowest values are shown more often than they occur.
Quick reference: plate-normalized OD600 growth of the listed items.
Give a plain numeric answer without units written out.

Take a look at these entries with their results.
{"compound": "CC(C)NCC(=O)NC12CC3CC(CC(C3)C1)C2", "endpoint": "plate-normalized OD600 growth", "experimentalValue": 0.656}
{"compound": "CC1CCCC(C)N1C(=O)c1ccc(Br)cc1 (configuration not stated)", "endpoint": "plate-normalized OD600 growth", "experimentalValue": 0.617}
{"compound": "CC1(C)CC(=O)c2c(CC3CC(=O)NC(=O)C3)noc2C1", "endpoint": "plate-normalized OD600 growth", "experimentalValue": 0.614}

Give the measured plate-normalized OD600 growth of `O=C1CCCc2c1nc(-c1ccccc1)n2O` .
0.662

Would you mind doing `O=C1CCCc2occ(-c3ccc([N+](=O)[O-])cc3)c21` as well?
0.634

Would you mind doing `CCCc1noc2c1C(=O)CC(C)(C)C2` as well?
0.622

Would you mind doing `COc1cc(OC)cc(C(=O)Nc2cccc(C)c2C)c1` as well?
0.63
